Data origin: patent US10472391B2

target system: ADAM10 (Homo sapiens)
Sequence (O14672 214-748): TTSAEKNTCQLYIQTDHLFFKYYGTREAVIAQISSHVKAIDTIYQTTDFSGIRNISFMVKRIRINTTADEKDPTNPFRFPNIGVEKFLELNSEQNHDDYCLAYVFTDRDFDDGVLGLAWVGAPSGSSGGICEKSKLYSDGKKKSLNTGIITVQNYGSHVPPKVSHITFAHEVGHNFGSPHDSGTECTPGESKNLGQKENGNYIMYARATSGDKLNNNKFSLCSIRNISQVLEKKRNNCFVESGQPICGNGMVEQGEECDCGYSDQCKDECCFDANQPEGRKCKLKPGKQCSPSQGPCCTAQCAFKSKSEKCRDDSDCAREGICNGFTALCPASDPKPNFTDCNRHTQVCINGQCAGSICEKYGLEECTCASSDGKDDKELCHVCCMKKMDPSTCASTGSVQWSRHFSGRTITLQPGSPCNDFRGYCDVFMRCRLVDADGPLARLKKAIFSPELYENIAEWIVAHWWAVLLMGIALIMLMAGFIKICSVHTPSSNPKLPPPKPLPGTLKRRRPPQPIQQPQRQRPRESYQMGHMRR
measured property: IC50

I am curious: what IC50 value has been reported for CNC(=O)[C@@H](NC(=O)[C@H](CCCc1ccccc1)[C@H](C)N(O)C=O)C(C)(C)C [GI254023X] ? ~5 µM
